Test System: HLA-A*6802 (human)
Protocol Summary: competition with 125I-labelled probe peptide for purified HLA, gel filtration
Where no end group is shown, it is not given here. [ ]: non-standard residue; d: D form. Abu = CC[C@H](N)C(=O)O
Readout Type: pIC50
Quick note: pIC50 values are minus log10 of concentrations in mol/L.

Guide cases for pIC50, answers given:
1) YLIMVKCWMV [Her2/neu.952L2V10]
7.08
2) YLIMVK[Abu]WMV (also called YLIMVKBWMV) [Her2/neu.952L2B7V10]
6.07
3) KTFGSLAFV [Her2/neu.369T2V9]
7.77

Proceed to the following item.
**Query** Return reported pIC50; argument: SLISAVVGV [Her2/neu.653.L2V9]
**Result** 6.96
